Classification values by entry
Molecular target: T1, GST-AF6 PDZ domain 1 (Homo sapiens (Human)), P55196
T1 chain: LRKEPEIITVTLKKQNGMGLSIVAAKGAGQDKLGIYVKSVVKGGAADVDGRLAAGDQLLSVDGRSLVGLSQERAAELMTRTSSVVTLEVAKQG
Assay: G' assay; note: key of the grades not given here
quantity: Classification

                                     binder        quantity  reported_result
0  YSQPSARSEGEFKQTSSFLV (modifications not checked) [JAM (junctional adhesion molecule)]  Classification     1 A450 class
1  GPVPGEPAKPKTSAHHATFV (modifications not checked) [RGS12 (regulator of G-protein signaling 12]  Classification     1 A450 class
2  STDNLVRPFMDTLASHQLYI (modifications not checked) [presenilin-2]  Classification     3 A450 class
3  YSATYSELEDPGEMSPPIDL (modifications not checked) [FceRlb]  Classification     2 A450 class

# credit: patent US20050282743A1
